Would you mind telling me the reported inhibition of each entry?
Measurement target: UniProt P03372
Sequence (P03372 whole entry): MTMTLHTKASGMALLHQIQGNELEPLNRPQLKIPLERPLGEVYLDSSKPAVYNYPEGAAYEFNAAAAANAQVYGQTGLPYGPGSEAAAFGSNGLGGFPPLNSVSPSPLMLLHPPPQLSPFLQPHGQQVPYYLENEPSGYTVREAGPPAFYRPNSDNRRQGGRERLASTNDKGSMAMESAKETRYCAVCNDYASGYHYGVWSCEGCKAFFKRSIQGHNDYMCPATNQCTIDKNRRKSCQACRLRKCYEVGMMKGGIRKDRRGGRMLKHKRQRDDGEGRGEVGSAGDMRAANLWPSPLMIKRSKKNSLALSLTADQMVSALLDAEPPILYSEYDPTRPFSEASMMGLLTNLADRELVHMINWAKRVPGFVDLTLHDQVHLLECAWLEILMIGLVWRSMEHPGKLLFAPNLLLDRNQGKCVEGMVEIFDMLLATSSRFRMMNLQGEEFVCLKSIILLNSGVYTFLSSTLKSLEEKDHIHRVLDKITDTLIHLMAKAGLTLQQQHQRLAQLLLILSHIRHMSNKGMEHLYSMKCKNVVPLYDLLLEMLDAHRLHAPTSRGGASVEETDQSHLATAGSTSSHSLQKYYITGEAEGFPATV
Assay method text: Displacement of radioligand from human Estrogen receptor alpha, percent inhibition at 10 uM

Worked cases, answers included:
Could you tell me which inhibition is on file for CC#C[C@]1(O)CC[C@H]2[C@@H]3CCC4=CC(=O)CCC4=C3[C@@H](c3ccc(N(C)C)cc3)C[C@@]21C ?
44%

Try this compound next: O=C1C=C2CCc3cc(O)ccc3C2(Cc2ccccc2)CC1 (single isomer, unassigned; form 1)
36%

And what about the compound Oc1ccc2c(c1)CC[C@@H]1C[C@@](O)(C#CCl)CC[C@@]21Cc1ccccc1 ?
62%

Another compound to look at: CC#C[C@]1(O)CCC2C3CCC4=CC(=O)CC[C@]4(Cc4ccc(C)cc4)C3=CC[C@@]21C (stereo partly drawn)
20%

Return reported inhibition values for all items listed beneath this line.
1. O=C1CC[C@@]2(Cc3ccccc3)c3ccc(O)cc3CC[C@@H]2C1
2. COc1ccc2c(c1)CCC1=CC(=O)CCC12Cc1ccccc1 (single isomer, unassigned; form 1)
3. O=C1C=C2CCc3cc(O)ccc3C2(Cc2ccccc2)CC1 (single isomer, unassigned; form 2)

["45%", "27%", "70%"]

Value lookup for inhibition; key = CC#C[C@@]1(O)CC[C@@]2(Cc3ccccc3)c3ccc(O)cc3CC[C@@H]2C1
50%

###

Measurement target: UniProt P08235
Sequence (whole entry): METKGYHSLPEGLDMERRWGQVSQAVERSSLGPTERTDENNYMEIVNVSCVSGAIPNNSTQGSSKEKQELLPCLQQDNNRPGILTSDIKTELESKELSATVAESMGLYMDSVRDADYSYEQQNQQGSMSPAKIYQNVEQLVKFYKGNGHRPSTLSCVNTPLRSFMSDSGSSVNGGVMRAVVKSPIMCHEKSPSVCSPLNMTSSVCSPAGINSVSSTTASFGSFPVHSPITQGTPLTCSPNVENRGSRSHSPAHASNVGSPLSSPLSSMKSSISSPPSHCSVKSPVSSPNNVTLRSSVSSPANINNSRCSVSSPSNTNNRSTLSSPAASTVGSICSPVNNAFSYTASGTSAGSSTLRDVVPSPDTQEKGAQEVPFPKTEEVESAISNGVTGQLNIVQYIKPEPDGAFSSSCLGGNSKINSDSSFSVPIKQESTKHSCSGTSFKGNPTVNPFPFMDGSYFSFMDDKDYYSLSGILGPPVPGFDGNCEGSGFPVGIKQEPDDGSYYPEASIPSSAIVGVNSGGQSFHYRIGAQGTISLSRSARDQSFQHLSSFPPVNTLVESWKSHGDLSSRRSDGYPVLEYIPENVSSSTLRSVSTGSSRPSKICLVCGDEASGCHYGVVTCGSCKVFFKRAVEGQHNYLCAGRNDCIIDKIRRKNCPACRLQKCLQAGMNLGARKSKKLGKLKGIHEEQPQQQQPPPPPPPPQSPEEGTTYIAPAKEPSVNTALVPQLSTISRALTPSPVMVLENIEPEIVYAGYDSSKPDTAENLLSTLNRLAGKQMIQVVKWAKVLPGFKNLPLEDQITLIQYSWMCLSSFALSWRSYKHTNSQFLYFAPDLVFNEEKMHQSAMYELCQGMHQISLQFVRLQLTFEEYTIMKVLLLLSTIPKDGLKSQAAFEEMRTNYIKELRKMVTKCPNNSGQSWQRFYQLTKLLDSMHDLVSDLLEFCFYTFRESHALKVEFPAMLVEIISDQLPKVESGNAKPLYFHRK
Reported metric: Kif

Observe how each entry below is paired with its result.
Would you kindly share the measured Kif for O=C1C=C2CCc3cc(O)ccc3C2(Cc2ccccc2)CC1 (single isomer, unassigned; form 2) ?
> 1000 nM

What do you get for COc1ccc2c(c1)CCC1=CC(=O)CCC12Cc1ccccc1 (single isomer, unassigned; form 1) ?
> 1000 nM

What about this molecule? Oc1ccc2c(c1)CC[C@@H]1C[C@@](O)(C#CCl)CC[C@@]21Cc1ccccc1
> 1000 nM

Please give the result for CC#C[C@]1(O)CCC2C3CCC4=CC(=O)CC[C@]4(Cc4ccc(C)cc4)C3=CC[C@@]21C (stereo not given in full) too.
> 1000 nM

Below: the item to evaluate.
I would be grateful if you could share the reported Kif for O=C1C=C2CCc3cc(O)ccc3C2(Cc2ccccc2)CC1 (single isomer, unassigned; form 1) .
> 1000 nM

###

Measurement target: Glucocorticoid receptor (Homo sapiens)
Sequence (P04150 whole entry): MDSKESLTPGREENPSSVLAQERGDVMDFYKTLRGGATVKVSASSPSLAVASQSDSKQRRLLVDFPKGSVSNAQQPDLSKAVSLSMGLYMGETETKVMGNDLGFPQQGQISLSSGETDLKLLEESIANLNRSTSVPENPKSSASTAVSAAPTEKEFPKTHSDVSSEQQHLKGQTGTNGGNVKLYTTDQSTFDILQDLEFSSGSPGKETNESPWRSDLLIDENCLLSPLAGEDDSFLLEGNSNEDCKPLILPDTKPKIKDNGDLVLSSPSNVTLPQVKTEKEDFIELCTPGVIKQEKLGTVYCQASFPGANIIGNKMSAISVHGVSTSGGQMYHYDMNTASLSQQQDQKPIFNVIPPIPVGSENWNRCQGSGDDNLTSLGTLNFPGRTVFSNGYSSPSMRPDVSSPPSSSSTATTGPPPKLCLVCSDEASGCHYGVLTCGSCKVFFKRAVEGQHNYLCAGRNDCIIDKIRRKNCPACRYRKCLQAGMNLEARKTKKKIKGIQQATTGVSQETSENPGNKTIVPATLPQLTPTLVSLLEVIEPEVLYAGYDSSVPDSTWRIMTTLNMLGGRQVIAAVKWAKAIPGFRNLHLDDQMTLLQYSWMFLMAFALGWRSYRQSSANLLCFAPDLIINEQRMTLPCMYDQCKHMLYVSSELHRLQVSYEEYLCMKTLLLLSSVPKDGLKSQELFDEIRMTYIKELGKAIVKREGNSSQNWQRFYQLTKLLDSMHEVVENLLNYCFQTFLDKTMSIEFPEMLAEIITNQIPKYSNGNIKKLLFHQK
Reported metric: Kif (nM)
Numbers only, in nM.

I would be grateful if you could provide Kif for each of the following entries.
1. CC#C[C@]1(O)CCC2C3CCC4=CC(=O)CC[C@]4(Cc4ccc(C)cc4)C3=CC[C@@]21C (stereo partly specified)
2. CC#C[C@]1(O)CC[C@H]2[C@@H]3CCC4=CC(=O)CCC4=C3[C@@H](c3ccc(N(C)C)cc3)C[C@@]21C
3. Oc1ccc2c(c1)CC[C@@H]1C[C@@](O)(C#CCl)CC[C@@]21Cc1ccccc1

[12, 2, 4.1]

###

Measurement target: Glucocorticoid receptor (Homo sapiens)
Assignment: determine reported Ki for the given molecules.
Numbers only, in nM.

Return Ki measured with Glucocorticoid receptor (Homo sapiens) given this molecule: O=C1C=C2CCc3cc(O)ccc3C2(Cc2ccccc2)CC1 (single isomer, unassigned; form 2)
157

Quick one: CC#C[C@]1(O)CCC2C3CCC4=CC(=O)CC[C@]4(Cc4ccc(C)cc4)C3=CC[C@@]21C (stereo partly drawn)
0.1

Now let's try a different one.
Give Ki (Glucocorticoid receptor (Homo sapiens)) of the following molecule: Oc1ccc2c(c1)CC[C@@H]1C[C@@](O)(C#CCl)CC[C@@]21Cc1ccccc1
0.1

###

Kif, Progesterone receptor (Homo sapiens): measured values

Look over these answered cases.
I have this molecule here, O=C1C=C2CCc3cc(O)ccc3C2(Cc2ccccc2)CC1 (single isomer, unassigned; form 2) , and I need its recorded Kif.
> 1000 nM

Then what about the molecule COc1ccc2c(c1)CCC1=CC(=O)CCC12Cc1ccccc1 (single isomer, unassigned; form 1) ?
> 1000 nM

What do you get for O=C1C=C2CCc3cc(O)ccc3C2(Cc2ccccc2)CC1 (single isomer, unassigned; form 1) ?
> 1000 nM

Entry to check: CC#C[C@]1(O)CCC2C3CCC4=CC(=O)CC[C@]4(Cc4ccc(C)cc4)C3=CC[C@@]21C (stereo not given in full)
> 1000 nM

Continue with the molecule presented below.
Given the molecule CC#C[C@]1(O)CC[C@H]2[C@@H]3CCC4=CC(=O)CCC4=C3[C@@H](c3ccc(N(C)C)cc3)C[C@@]21C , what is its reported Kif?
11.8 nM

###

Measurement target: Androgen receptor (Homo sapiens)
Sequence (P10275 whole entry): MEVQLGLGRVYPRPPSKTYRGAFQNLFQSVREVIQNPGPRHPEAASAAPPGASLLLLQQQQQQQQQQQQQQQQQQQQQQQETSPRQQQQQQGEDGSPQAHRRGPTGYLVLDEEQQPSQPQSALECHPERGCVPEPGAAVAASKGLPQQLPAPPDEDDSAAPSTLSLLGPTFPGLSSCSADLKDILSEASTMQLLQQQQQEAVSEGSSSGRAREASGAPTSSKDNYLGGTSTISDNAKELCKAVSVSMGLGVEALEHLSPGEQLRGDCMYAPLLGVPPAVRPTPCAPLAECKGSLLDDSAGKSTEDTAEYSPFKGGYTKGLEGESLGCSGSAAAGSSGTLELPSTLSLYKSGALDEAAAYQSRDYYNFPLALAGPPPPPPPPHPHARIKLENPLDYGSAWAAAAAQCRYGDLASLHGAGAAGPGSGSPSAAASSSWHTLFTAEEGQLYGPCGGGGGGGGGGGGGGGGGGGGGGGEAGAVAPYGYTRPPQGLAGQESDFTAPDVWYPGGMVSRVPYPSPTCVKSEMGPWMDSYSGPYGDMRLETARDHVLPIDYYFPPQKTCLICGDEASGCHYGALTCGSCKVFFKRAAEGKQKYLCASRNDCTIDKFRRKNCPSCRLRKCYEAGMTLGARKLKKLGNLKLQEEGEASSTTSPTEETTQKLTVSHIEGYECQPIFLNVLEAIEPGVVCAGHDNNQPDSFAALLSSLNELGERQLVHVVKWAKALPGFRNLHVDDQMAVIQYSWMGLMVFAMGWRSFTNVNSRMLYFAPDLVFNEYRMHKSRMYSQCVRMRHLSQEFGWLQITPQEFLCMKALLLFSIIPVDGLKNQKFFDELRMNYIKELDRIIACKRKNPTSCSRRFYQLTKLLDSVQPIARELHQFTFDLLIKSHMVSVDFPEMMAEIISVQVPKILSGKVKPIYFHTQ
Assay method text: Displacement of [3H]DHT from human Androgen receptor
pKi: −log10 of the molar value.
Output satisfied for pKi not less than 7; output not satisfied otherwise.

In plain terms: is recorded pKi at least 7 for O=C1C=C2CCc3cc(O)ccc3C2(Cc2ccccc2)CC1 (single isomer, unassigned; form 2) ?
not satisfied

Check COc1ccc2c(c1)CCC1=CC(=O)CCC12Cc1ccccc1 (single isomer, unassigned; form 2) too.
satisfied

Please answer likewise for COc1ccc2c(c1)CCC1=CC(=O)CCC12Cc1ccccc1 (single isomer, unassigned; form 1)
not satisfied

Follow-up item: O=C1C=C2CCc3cc(O)ccc3C2(Cc2ccccc2)CC1 (single isomer, unassigned; form 1)
not satisfied

Okay, next one:
Check the entry O=C1CC[C@@]2(Cc3ccccc3)c3ccc(O)cc3CC[C@@H]2C1 : does pKi equal or exceed 7?
not satisfied

Every entry's value here was drawn from ChEMBL document CHEMBL1135457.
